In this section, each of the sequences is paired with its reported apparent KD of MS2 coat protein.
system: MS2 coat protein; assay: apparent KD of MS2 coat protein; designed switch direction (-1 OFF switch, 1 ON switch): -1; higher = weaker reporter binding; conditions: input ligand: FMN 200 uM
Write the answer as a number in nM, unit excluded.

Field: example entries. Status: answers known.
Sequence Entry | Value Units | Numeric Result
AUGUCGGCAGGAUAUACAUGAGGAUCACCCAUGUAAAUUUUUCGUUUAACUUGAAUGUGUAGAAGGGCCAUGUA [Ex3 #69] (Eterna round: R97, puzzle: Exclusion 3) | nM | 29.1
ACGCAUUGCCUUUGGUAGUGCGUAACAUGAGGAUCACCCAUGUAGGAUAUGGUAGGCUUUGCUUACCAGAAGGACAUUAUAAUC [Mat - Exclusion NG 3 - Mod of JL - D8] (Eterna round: R96, puzzle: Exclusion NG 3) | nM | 65
AAUCCUAGAGGAUAUACAUGUGAACUACUGUACAUCCCUGUACAUGAGGAUCACCCAUGUAGAAGGCUGACGGA [Eternabot (L2) Solution 97] (Eterna round: R97, puzzle: Exclusion 2) | nM | 244

input: Entry AACCUGAGGCUUUGCUUUAGGUGUACAUGAGGAUCACCCAUGUAGGAUAUGGUAGGCUUUGCUUACCAGAAGGACAUUUAGGUU [JL ENG3 1.15] (Eterna round: R96, puzzle: Exclusion NG 3) has what apparent KD of MS2 coat protein?
output: 110

input: Entry GUACAACAUGAGGAUCACCCAUGUGAGGAUAUGCGAAUUUCAUCAAAAGAUGAAAUUUGCAGAAGGCACUGUAC [Omei Ex1 A10] (Eterna round: R97, puzzle: Exclusion 1) has what apparent KD of MS2 coat protein?
output: 19.2

###

test system: MS2 coat protein; assay: apparent KD of MS2 coat protein, switch OFF state (with FMN for OFF switches, without FMN for ON switches); designed switch direction (-1 OFF switch, 1 ON switch): -1; higher = weaker reporter binding; settings: FMN input: 0 or 200 uM; Eterna round: R93 (includes R88 designs)
Metric: apparent KD of MS2 coat protein (nM)
Write the answer as a number in nM, unit excluded.

Field: example entries. Status: answers known.
Sequence Entry | Numeric Result
AAAAGACAUGAGGAUCACCCAUGUGAGGAUAUGCAAAACCCAUAUAAAAAGGGAAAAAGCAGAAGGUACAAAAA [wbt round 1 mod 13] | 40.5
AGAAAGUCAGGAUAUACGAAAGUGCGAAAGCACACAAGGGAACAUGAGGAUCACCCAUGUAGAAGGGACAAGAA [Diamond 78] | 91.7
AAAAAGUCAGGAUAUGCACAAAAAAAAAUAAAAAAAAAAGUGCAGAAGGGACAUGAGGAUCACCCAUGUAAGAU [Mat - Exclusion 4 - Mayanna - D118] | 77.2

# evaluate next
input: Entry AAGAGUAGAGGAUAUAUAUGAAAAGAGUCGAAAGACUCAAAACAUGAGGAUCACCCAUGUAGAAGGCUACUCAA [Hyphema Seclusion mod] has what apparent KD of MS2 coat protein?
output: 17.5

###

tested on: MS2 coat protein; experiment: apparent KD of MS2 coat protein; designed switch direction (-1 OFF switch, 1 ON switch): -1; higher = weaker reporter binding; details: input ligand: microRNA oligo, concentration not stated
Metric: apparent KD of MS2 coat protein (nM)
Write the answer as a number in nM, unit excluded.

Field: example entries. Status: answers known.
Sequence Entry | Value Units | Numeric Result
CCUAGUUGGUAAGGAUAUCCUACACUAUUCUGACCCGUGCAAGCUACAUGAGGAUCACCCAUGUGGGAGAAGGUGCGUCAACGC [Design 11] (Eterna round: R96, puzzle: Exclusion NG 2) | nM | 19.7
UUGUUAUGUGUAGGAUAUGCGUAUUAUUAUUAUGCAGAAGGACAUGAGGAUCACCCAUGUGUAUUAUUAUUAUAUAUUAUAUAU [Title] (Eterna round: R96, puzzle: Exclusion NG 1) | nM | 20.4

# evaluate next
input: Entry ACAAGCUAAGUGCUCGGUCCGGGAGACACGUGAUCAGCGACAUGAGGAUCACCCAUGUAAUAGGAGCUUAAAACGUU [solution 46] (Eterna round: R96, puzzle: Sensor v2, turn-off variant 2) has what apparent KD of MS2 coat protein?
output: 20.1

// data source = the supplement of paper PMC9170038
